# Lookup of reported selectivity ratio keyed by entry
Protocol text: Selectivity ratio of IC50 for human resting PBMC to IC50 for human Jurkat cells
Assay type: ADME, cell-based
Setup conditions: resting PBMC versus Jurkat cells, read-out: Ratio IC50

>  <Molecule smiles>
C=C(Br)C(=O)Nc1cccc(/C=C/C(=O)Nc2ccc(N3CCOCC3)cc2)c1

>  <selectivity ratio>
10

$$$$
>  <Molecule smiles>
C=C(Br)C(=O)Nc1ccc(/C=C/C(=O)Nc2cc(OC)c(OC)c(OC)c2)cc1

>  <selectivity ratio>
10

$$$$

* * *

Test system: Jurkat
Protocol text: Cytotoxicity against human Jurkat cells assessed as growth inhibition after 72 hrs by MTT assay
Format: functional, cell-based
pIC50: −log10 of the molar value.
Readout name: pIC50

>  <Molecule smiles>
COc1cccc(/C=C/C(=O)Nc2cc(OC)c(OC)c(OC)c2)c1

>  <Readout name>
pIC50

>  <Reported result>
4.90

$$$$
>  <Molecule smiles>
COc1cc(NC(=O)/C=C/c2cccc(N)c2)cc(OC)c1OC

>  <Readout name>
pIC50

>  <Reported result>
4.36

$$$$
>  <Molecule smiles>
C=C(Br)C(=O)Nc1cccc(/C=C/C(=O)Nc2ccc(OC)cc2)c1

>  <Readout name>
pIC50

>  <Reported result>
6.33

$$$$
>  <Molecule smiles>
C=C(Br)C(=O)Nc1ccc(/C=C/C(=O)Nc2cc(OC)c(OC)c(OC)c2)cc1

>  <Readout name>
pIC50

>  <Reported result>
6.39

$$$$
>  <Molecule smiles>
C=C(Br)C(=O)Nc1cccc(/C=C/C(=O)NCc2ccc(C)cc2)c1

>  <Readout name>
pIC50

>  <Reported result>
6.13

$$$$
>  <Molecule smiles>
C=C(Br)C(=O)Nc1cccc(/C=C/C(=O)Nc2ccc(C)cc2)c1

>  <Readout name>
pIC50

>  <Reported result>
6.62

$$$$
>  <Molecule smiles>
C=C(Br)C(=O)Nc1cccc(/C=C/C(=O)Nc2ccc(Cl)cc2)c1

>  <Readout name>
pIC50

>  <Reported result>
5.59

$$$$
>  <Molecule smiles>
C=C(Br)C(=O)Nc1cccc(/C=C/C(=O)Nc2cc(OC)cc(OC)c2)c1

>  <Readout name>
pIC50

>  <Reported result>
6.01

$$$$
>  <Molecule smiles>
C=C(Br)C(=O)Nc1cccc(/C=C/C(=O)Nc2ccc(OC(F)(F)F)cc2)c1

>  <Readout name>
pIC50

>  <Reported result>
4.52

$$$$
>  <Molecule smiles>
C=C(Br)C(=O)Nc1cccc(/C=C/C(=O)Nc2ccc(N3CCOCC3)cc2)c1

>  <Readout name>
pIC50

>  <Reported result>
7.40

$$$$
>  <Molecule smiles>
C=C(Br)C(=O)Nc1cccc(/C=C/C(=O)Nc2ccc(OCC)cc2)c1

>  <Readout name>
pIC50

>  <Reported result>
6.03

$$$$
